TARGET_UNDER_TEST: T1, MipZ D42A (Caulobacter crescentus, UniProt Q9A6C9 1-278, D42A)
T1 sequence: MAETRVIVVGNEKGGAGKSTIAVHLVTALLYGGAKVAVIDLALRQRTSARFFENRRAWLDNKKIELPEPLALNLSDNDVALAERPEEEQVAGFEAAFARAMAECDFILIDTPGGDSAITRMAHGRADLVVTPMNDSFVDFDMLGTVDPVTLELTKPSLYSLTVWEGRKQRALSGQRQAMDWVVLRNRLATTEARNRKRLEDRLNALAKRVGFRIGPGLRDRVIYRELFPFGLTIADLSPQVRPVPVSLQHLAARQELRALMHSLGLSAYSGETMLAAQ
PROCEDURE_TEXT: MST; EMSA: 10 mM HEPES/NaOH pH 7.2, 150 mM NaCl, 10 mM MgCl2, 0.05% Tween 20, 0.46 mM ATPgS, room temp; BLI: 50 mM HEPES/NaOH pH 7.2, 50 mM NaCl, 5 mM MgCl2, 0.1 mM
CONDITION_NOTES: protein: recombinant; tags: C-terminal His6 (pET21a); chain copies: 2; label: Cy3 (5') on strand 1; blunt
pKd: −log10 of the molar value.

# BINDER, pKd
data = [
    ("rand-Cy3/rand-rev 26 bp (dsDNA) DNA 1: GAGGCAGACTAGATCTTCTAGTTCGG DNA 2: CCGAACTAGAAGATCTAGTCTGCCTC", "> 5.00"),
]

Where do these numbers come from? They come from paper PMC7229837.
